- Tested on: ATP-dependent translocase ABCB1 (Homo sapiens)
- Assay explanation: Induction of Vanadate-sensitive ABCB1 (unknown origin) assessed as ATPase activity by measuring concentration required for 50% maximal stimulation by Pgp-glo assay
- Condition description: read-out: Activity
Property label: EC50
// return the numeric value with its unit appended

*Q* Please indicate EC50 recorded for COc1ccc2cc1Oc1ccc(cc1)C[C@H]1c3cc(c(OC)cc3CCN1C)Oc1c(OC)c(OC)c(OC)c3c1[C@H](C2)N(C)CC3
*A* 20 nM

---

- Tested on: UniProt:P08183
- Assay explanation: Inhibition of human ABCB1-mediated efflux transfected in HEK293 cells assessed as accumulation of fluorescent dye by calcein-AM dye based FACS analysis
Property label: IC50 (µM)
The response must be a number in µM with no trailing unit.

*Q* Please indicate IC50 recorded for COc1ccc2cc1Oc1ccc(cc1)C[C@H]1c3cc(c(OC)cc3CCN1C)Oc1c(OC)c(OC)c(OC)c3c1[C@H](C2)N(C)CC3
*A* 0.3

---

- Tested on: ABCB1 (P-glycoprotein) (Homo sapiens)
- Sequence (P08183 whole entry): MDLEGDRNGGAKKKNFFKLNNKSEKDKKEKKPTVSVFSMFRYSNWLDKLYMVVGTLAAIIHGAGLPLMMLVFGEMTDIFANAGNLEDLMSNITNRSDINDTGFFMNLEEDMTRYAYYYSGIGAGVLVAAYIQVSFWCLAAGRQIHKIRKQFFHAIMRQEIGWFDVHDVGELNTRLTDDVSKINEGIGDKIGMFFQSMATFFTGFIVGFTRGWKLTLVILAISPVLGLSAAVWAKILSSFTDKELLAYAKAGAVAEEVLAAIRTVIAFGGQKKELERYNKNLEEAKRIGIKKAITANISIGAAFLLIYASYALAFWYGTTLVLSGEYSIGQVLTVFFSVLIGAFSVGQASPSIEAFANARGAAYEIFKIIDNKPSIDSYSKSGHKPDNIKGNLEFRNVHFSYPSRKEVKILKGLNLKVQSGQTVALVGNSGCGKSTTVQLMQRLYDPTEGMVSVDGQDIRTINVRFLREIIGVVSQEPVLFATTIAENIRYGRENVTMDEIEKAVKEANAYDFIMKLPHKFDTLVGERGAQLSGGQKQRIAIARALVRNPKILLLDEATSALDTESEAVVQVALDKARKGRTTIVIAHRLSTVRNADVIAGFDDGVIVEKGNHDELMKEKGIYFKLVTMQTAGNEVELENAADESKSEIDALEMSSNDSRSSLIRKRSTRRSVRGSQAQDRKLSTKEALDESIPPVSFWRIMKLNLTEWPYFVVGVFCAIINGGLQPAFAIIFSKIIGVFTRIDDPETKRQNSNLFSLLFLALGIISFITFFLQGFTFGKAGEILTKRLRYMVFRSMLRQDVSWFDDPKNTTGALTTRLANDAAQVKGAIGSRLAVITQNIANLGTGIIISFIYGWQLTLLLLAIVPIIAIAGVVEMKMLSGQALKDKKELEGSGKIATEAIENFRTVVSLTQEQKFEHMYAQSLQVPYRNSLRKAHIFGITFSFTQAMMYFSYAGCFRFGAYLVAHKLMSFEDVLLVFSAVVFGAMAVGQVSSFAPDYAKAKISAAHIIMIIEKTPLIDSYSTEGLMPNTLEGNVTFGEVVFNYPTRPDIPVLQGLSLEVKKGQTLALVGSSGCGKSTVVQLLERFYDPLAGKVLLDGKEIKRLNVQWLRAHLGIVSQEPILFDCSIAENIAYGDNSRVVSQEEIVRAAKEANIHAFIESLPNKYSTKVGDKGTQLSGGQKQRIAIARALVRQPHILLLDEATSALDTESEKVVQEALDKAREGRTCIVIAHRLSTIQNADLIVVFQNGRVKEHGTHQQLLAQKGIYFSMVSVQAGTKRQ
- Assay explanation: Induction of Vanadate-sensitive ABCB1 (unknown origin) assessed as increase in ATPase activity up to 1 uM by Pgp-glo assay relative to control
- Condition description: read-out: FC
Property label: fold induction
// print number alone

*Q* Please indicate fold induction recorded for COc1ccc2cc1Oc1ccc(cc1)C[C@H]1c3cc(c(OC)cc3CCN1C)Oc1c(OC)c(OC)c(OC)c3c1[C@H](C2)N(C)CC3
*A* 7
